We begin with a simple list: items and their reported composite z-score.
# Assay Summary: small-molecule microarray binders of probe aWnt5a, primary screen, biochemical, biotinylated probe, 635/667 nm fluorescence (AID 1113);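 also: score merges 667 nm fluorescence intensity with signal-to-noise per printed feature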
# Condition Context: higher = more signal
Reported Metric: composite z-score

| Molecule | Reported Metric | Reported Result |
| --- | --- | --- |
| COc1cc2c(cc1OC)CN(C(=O)[C@H]1[C@@H]3C(=O)O[C@@H](c4ccccc4)[C@@H](c4ccccc4)N3[C@@H](c3ccc(O)cc3)[C@]13C(=O)Nc1ccc(C#CC4(O)CCCCCC4)cc13)CC2 | composite z-score | 0.808 |
| [N-]=[N+]=NCc1ccccc1C[C@]1(C(N)=O)N=C(c2ccc(OCCCO)cc2)O[C@H]1c1ccccc1CN=[N+]=[N-] | composite z-score | 0.0286 |
| CCN1C(C)=C(C(=O)OC)[C@@H](c2ccccc2)N2C(=O)[C@@]3(C(=O)OC)O[C@@]12[C@@H]1C(=O)N(C)C(=O)[C@@H]13 | composite z-score | -0.0882 |
| O=C(NCC(O)CO)[C@]1(Cc2ccccc2)N=C(c2ccc(OCCCO)cc2)O[C@@H]1c1ccccc1 (stereo partly specified) | composite z-score | 0.225 |
| O=C1O[C@@H](c2ccccc2)[C@@H](c2ccccc2)N2[C@@H](c3ccc(OCCO)cc3)[C@]3(C(=O)Nc4ccc(C#CCCO)cc43)[C@@H](C(=O)N3CCN(c4ncccn4)CC3)[C@H]12 | composite z-score | 0.0115 |
| C=CCC(OC(C)=O)[C@@H]1[C@@H](N(Cc2ccc(-c3ccccc3)cc2)C(=O)c2ccc(C)cc2)c2cc(OCCCO)ccc2N1C(=O)c1ccc(-c2ccccc2)cc1 (stereo partly specified) | composite z-score | -0.101 |

* * *

Catalogue of composite z-score readings, one per entry.
# Assay Target: Concanavalin-A (Canavalia ensiformis) (UniProt P02866)
# Sequence (P02866 whole entry, looked up): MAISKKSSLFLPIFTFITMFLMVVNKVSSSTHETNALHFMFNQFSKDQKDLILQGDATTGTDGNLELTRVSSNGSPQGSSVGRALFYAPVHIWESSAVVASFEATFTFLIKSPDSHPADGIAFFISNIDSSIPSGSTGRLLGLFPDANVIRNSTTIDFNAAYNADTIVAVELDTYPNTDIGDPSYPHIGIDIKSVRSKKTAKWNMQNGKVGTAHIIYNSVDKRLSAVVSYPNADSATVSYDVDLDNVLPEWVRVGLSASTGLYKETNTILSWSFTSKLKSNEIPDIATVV
# Assay Summary: ConA small-molecule binders, primary screen, artefact control for SMM control protein annotation, biochemical, small-molecule microarray, Alexa647 label, 635 nm (AID 1127);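 also: z combines 667 nm emission intensity with signal-to-noise across three replicate slides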
# Condition Context: ConA-A647 binding fluorescence, higher = more signal

| Compound | composite z-score |
| --- | --- |
| COc1ccc(C(=O)Nc2ccc(CN3C(=O)[C@]4(O[C@H](CCn5cc(CCO)nn5)[C@@H]([Si](C)(C)c5ccc(OC)cc5)[C@@H]4C)c4ccccc43)cc2)cc1 | 1.15 |
| COc1ccc(-c2cc3c(c(-c4ccccc4)n2)[Si](C(C)C)(C(C)C)O[C@H]3c2ccccc2)cn1 | 0.165 |
| CCCC/C=C/[C@H]([C@@H](O)Cc1ccccc1)N(CC#Cc1ccccc1)Cc1ccccc1Br | -0.89 |
| C[C@@H]1CC[C@H]2C(=O)N3[C@@H](CC[C@@H](C)[C@@H]3c3cccc(N4CCOCC4)c3)C(=O)N2[C@H]1c1cccc(Br)c1 | 0.92 |
| Cc1ccc(S(=O)(=O)N[C@H]2COC(=O)CC=C[C@H](C)COC(=O)N[C@@H](C)C(=O)CC=C[C@@H]2C)cc1 | 0.152 |
| COC(=O)Cn1c(C(=O)N2CCCC2)cc2c1C[C@H]1CN(C(=O)c3ccccc3)[C@@](Cc3ccc(OC)cc3)(C(=O)OC)[C@@H]21 | 0.73 |
| CO[C@H]1COC(=O)[C@H](Cc2ccccc2)NC(=O)CC=C[C@@H](C)[C@H](OC)COC(=O)CC=C[C@@H]1C | 0.296 |
| C=CCN(C(=O)C1N(c2ccc(CCO)cc2)C(=O)C2C(C(=O)O)C3C=CC21O3)C(C)(C)C (stereo not drawn) | -3.08 |
| C=CCN1C(=O)[C@]2(O[C@H](CCn3cc(CCO)nn3)[C@@H]([Si](C)(C)c3ccc(OC)cc3)[C@@H]2C)c2cc(NC(=O)c3ccc(OC)cc3)ccc21 | 1.08 |
| C[N+](C)(C)CCCC[C@@H]1NC(=O)[C@H]2C[C@@H](C(=O)NCc3ccc(F)cc3)[C@@H](c3cccc(OCCO)c3)N2C1=O | 1.08 |
| O=C(N1CCCCC1)[C@@]1(CCS(=O)(=O)c2ccccc2)N=C(c2ccc(OCCCO)cc2)O[C@H]1c1ccccc1 | 0.639 |
| CC1CC/C=C\[C@H]2OC34C=CCN(Cn5nnc6ccccc65)C(=O)[C@H]3N(C(C)CO)C(=O)[C@@H]4C2C(=O)O1 (stereo partly drawn) | -0.309 |
| [N-]=[N+]=NCc1ccccc1C[C@@]1(C(=O)O)N=C(c2ccc(OCCCO)cc2)O[C@@H]1c1ccccc1N=[N+]=[N-] | 0.421 |
| CC(C)[Si]1(C(C)C)OCc2cc(C3CC3)nc(-c3ccccc3)c21 | -0.26 |
| C[C@H]1C2[C@H](Cc3ccccc3)NC(=O)[C@]23C(=O)N[C@H](Cc2ccccc2)C(=O)N[C@@H](Cc2ccccc2)C(=O)NC/C=C\C/C=C/C3[C@@H]2O[C@]12C (stereo partly drawn) | -1.08 |
| CSCC[C@@H]1NC(=O)CC=C[C@@H](C)COC(=O)[C@H](CCSC)NC(=O)CC=C[C@@H](C)COC1=O | -0.796 |
| COc1ccc([Si](C)(C)[C@@H]2[C@@H](CC(=O)N(CCO)Cc3ccccc3)O[C@]3(C(=O)N(Cc4cccc(N5CCC5=O)c4)c4ccccc43)[C@H]2C)cc1 | 0.902 |
| C=CC[C@]1(C(=O)OC)N=C(c2ccc(OCCCO)cc2)O[C@H]1c1ccccc1CN=[N+]=[N-] | -1.06 |
| C=C(CCCC)/C(=C/C[C@@H](OC(=O)c1ccncc1)c1cccc(OCCO)c1)c1cc(C(=O)OC)ccc1OC | 1.11 |
| CCN1C(C)=C(C(=O)OC)[C@@H](c2ccccc2)N2C(=O)[C@@]3(C(=O)OC)O[C@@]12[C@@H]1C(=O)CCC[C@@H]13 | -0.92 |
| CO[C@H]1COC(=O)CC=C[C@@H](C)COC(=O)[C@@H](C)NC(=O)CC=C[C@@H]1C | -0.704 |
| Cc1cc(C)c(C(O)C2C=CC3C(=O)N(C)C(=O)C3N2N2CCCCC2)c(C)c1 (stereo not drawn) | 1.15 |
| NC(=O)NCC#Cc1ccc2c(c1)[C@]1(C(=O)N2)[C@H](c2ccccc2OCCO)N2[C@H](c3ccccc3)[C@H](c3ccccc3)OC(=O)[C@H]2[C@@H]1C(=O)N1CCN(c2ncccn2)CC1 | 0.946 |
| C=C(CCCC)C(=O)CC[C@@H](OC(C)=O)c1ccccc1OCCO | -1.43 |
| COCCOC(=O)N1C(=O)[C@@]2(c3cc(C#CCCO)ccc31)[C@H](c1ccc(OCCO)cc1)N1[C@H](c3ccccc3)[C@H](c3ccccc3)OC(=O)[C@H]1[C@@H]2C(=O)NC[C@H](O)c1ccccc1 | 1.05 |
| CN(C)c1ccc(C(O)C2C=CC3C(=O)NC(=O)C3N2Nc2ccc(Cl)cc2Cl)cc1 (stereo not drawn) | 0.332 |
| CCCC=C(CCC)[C@@H](NS(=O)(=O)c1cccc(C(F)(F)F)c1)c1ccc(C(=O)OC)cc1 | 0.804 |
| O=C1O[C@@H](c2ccccc2)[C@@H](c2ccccc2)N2[C@@H](c3ccc(O)cc3)[C@]3(C(=O)Nc4ccccc43)[C@@H](C(=O)N3CCN(c4ncccn4)CC3)[C@H]12 | 0.474 |

* * *

# Assay Summary: small-molecule microarray binders of probe aLefty2, primary screen, biochemical, biotinylated probe, 635/667 nm fluorescence (AID 1094);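 also: score merges spot fluorescence near 667 nm with spot signal-to-noise ratio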
# Condition Context: higher = more signal
Label label 1 when composite z-score is at or above -0.01; anything below gets label 0.

| Compound | Assigned Class |
| --- | --- |
| CCC(=O)[C@]12O[C@@]3([C@@H]4C(=O)OCC[C@@H]41)N(Cc1ccccc1)C(C)=C(C(=O)OC)[C@@H](c1ccccc1)N3C2=O | label 0 |
| COc1ccc(CCNC(=O)[C@@]2(c3ccc([N+](=O)[O-])cc3)CC(=O)N(C(C)C)[C@@H]2c2ccc(CO)cc2)cc1 | label 1 |
| CC(C)CN1C(=O)[C@@]2(Cc3ccccc31)c1ccccc1C(=O)N(C1CCCCC1)[C@H]2c1ccc(CO)cc1 | label 0 |
| O=C(NCC(O)CO)[C@]1(Cc2ccccc2)N=C(c2ccc(OCCCO)cc2)O[C@@H]1c1ccccc1 (stereo partly drawn) | label 1 |
| Cc1ccc(S(=O)(=O)N2[C@@H](c3ccccc3)C(C(=O)O)=CC[C@H]2c2ccccc2)cc1 | label 1 |
| COc1cccc([C@@H]2[C@@H](C)CC[C@H]3C(=O)N(C)[C@@H](C(C)C)C(=O)N23)c1 | label 0 |
| O=C1O[C@@H](c2ccccc2)[C@@H](c2ccccc2)N2[C@@H](c3ccc(OCCO)cc3)[C@]3(C(=O)Nc4ccc(C#CCCO)cc43)[C@@H](C(=O)N3CCN(c4ncccn4)CC3)[C@H]12 | label 0 |
| C#CCNC(/C=C/c1ccccc1)CO (stereo not drawn) | label 0 |

The reported measurements were obtained from PubChem BioAssay.
